Target: UniProt:Q9NYK1
Sequence (Q9NYK1 27-1049): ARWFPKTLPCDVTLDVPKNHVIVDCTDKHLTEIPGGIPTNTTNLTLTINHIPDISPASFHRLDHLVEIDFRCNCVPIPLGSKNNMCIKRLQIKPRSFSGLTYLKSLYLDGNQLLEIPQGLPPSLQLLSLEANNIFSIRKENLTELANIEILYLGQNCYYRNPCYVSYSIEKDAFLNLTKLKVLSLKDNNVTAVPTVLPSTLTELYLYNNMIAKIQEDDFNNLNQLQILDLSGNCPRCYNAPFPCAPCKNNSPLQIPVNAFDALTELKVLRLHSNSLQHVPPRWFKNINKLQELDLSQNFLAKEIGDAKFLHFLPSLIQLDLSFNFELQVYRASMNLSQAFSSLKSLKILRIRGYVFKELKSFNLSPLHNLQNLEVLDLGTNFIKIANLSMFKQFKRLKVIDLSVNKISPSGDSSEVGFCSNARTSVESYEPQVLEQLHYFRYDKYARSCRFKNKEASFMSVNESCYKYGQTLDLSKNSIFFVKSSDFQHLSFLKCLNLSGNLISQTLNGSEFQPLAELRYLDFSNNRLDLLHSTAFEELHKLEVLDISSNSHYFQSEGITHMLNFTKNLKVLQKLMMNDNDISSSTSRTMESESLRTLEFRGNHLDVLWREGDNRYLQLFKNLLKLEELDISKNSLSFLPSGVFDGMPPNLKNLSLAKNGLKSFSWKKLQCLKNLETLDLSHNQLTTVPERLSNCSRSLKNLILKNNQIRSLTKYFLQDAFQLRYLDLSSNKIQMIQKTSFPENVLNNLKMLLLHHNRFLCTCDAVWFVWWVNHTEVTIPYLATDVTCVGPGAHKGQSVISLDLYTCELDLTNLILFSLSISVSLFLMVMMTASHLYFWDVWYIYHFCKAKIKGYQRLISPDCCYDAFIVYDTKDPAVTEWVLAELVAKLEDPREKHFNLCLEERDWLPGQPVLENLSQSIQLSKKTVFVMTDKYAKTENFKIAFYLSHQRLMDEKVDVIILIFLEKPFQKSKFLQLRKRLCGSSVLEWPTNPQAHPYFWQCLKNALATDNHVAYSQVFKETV
Method description: Reporter Gene Assay (HEK293 stably transfected with human TLR7 and NF-kB-driven luciferase reporter)
Type: cell-based
Applied conditions: HEK293 cells stably transfected with human TLR7 and pNifty-Luciferase; 7 hours incubation; EC50 relative to the activity of resiquimod set to 100%
Procedure: As a control assay, normal Hek293 transfected with pNifty-Luc were used. […] Bright-Glo™ Luciferase assay buffer and substrate were supplied by Promega #E263B and #E264B (assay substrate and buffer respectively). […] Cells were plated at 25,000 cells/well in 384-well plates in a final volume of 50 μl of media. […] The luminescence signal was read on a CLIPR machine with an integration time of 20 seconds per plate.

Entry smiles | Reading qualifier | EC50 / µM
CCCCCNc1nc(N)nc2ccn(Cc3ccc(C(=O)OCCN(C)C)cc3OC)c12 | < | 0.005
CCCC[C@@H](CO)Nc1nc(N)nc2ccn(Cc3cc(CN4CCNCC4)ccc3OC)c12 | = | 0.08
CCCCCNc1nc(N)nc2ccn(Cc3ccc(CC(=O)OCCN4CCNCC4)cc3OC)c12 | = | 0.03
CCCCCNc1nc(N)nc2ccn(Cc3ccc(CCC(=O)OCC(=O)N4CCOCC4)cc3OC)c12 | = | 0.02
CCCCCNc1nc(N)nc2ccn(Cc3cc(C(=O)OC)ccc3OC)c12 | < | 0.005
CCCCCNc1nc(N)nc2ccn(Cc3ccc(CC(=O)OCC(=O)N(C)C)cc3OC)c12 | = | 0.08
CCCC[C@@H](CO)Nc1nc(N)nc2ccn(Cc3ccc(CN4CCNCC4)cc3OC)c12 | = | 0.007
CCCCCNc1nc(N)nc2ccn(Cc3cc(OCC(=O)OCCN4CCN(C)CC4)ccc3OC)c12 | = | 0.2
CCCCCNc1nc(N)nc2ccn(Cc3ccc(C(=O)OCCOCCN(C)C)cc3OC)c12 | = | 0.02
CCCC[C@@H](CO)Nc1nc(N)nc2ccn(Cc3ccc(CC(=O)OCC(=O)N4CCOCC4)cc3OC)c12 | = | 0.01
